# Assay protocol: 14C assay with IPTG-induced recombinant E. coli cells (14CO2 capture from [14C]-carboxyl-labeled dicamba)
# Assay context: IPTG-induced recombinant E. coli cells; [14C]-carboxyl-labeled dicamba; 14CO2 capture
Endpoint name: Dicamba Decarboxylase Activity

{"Molecule": "93 (protein, listed as Mucilaginibacter paludis) MAKYGKHITINKNMRIVTLEEHISFPEMADQIPKAALGSFGRSEAMQRIAPKLADITGERLKSMDANGISMQVLSVDSSGVNLLSPQQGPAFATQYNDLIANRIAGFEKRFTAFAHLPMTAPFAAADELERAVKEHHFCGAMIRGLTGDQFLDHPQFAPIFERAQKLDVPIYLHPGLPPKGVADIYYSGLPNYSGMAEALACYGWGWHSETALHVLRLLFSGIFDQYPKLKLVIGHMGEMLPMMMARSEKAFKPGNGGANVRTLTDTFRSQVYLTTSGFFTQPPLKIALDTFGIDHVMFSVDYPFSTNEMGIEFLNEIDLPDEEVARIAHGNADKLLNLKA", "Endpoint result": "Low"}
{"Molecule": "85 (protein, listed as Maritimibacter alkaliphilus) MAADRKPGLVSVEEGFMIPEVVAELSRIAGGVPSMKSGPIAGPFMDDLLDIGKGRVARMDADGVAVQILALAAPGVQKFDPDTALALSRLTNDRLAEAIAAHPARFGGLAAAPPQAAREGAKELDRAITTLGLNGLIVNSHTNDLYLDDPSFWPLLEAAEALDVPVYLHPREPAAGIEGGLMAMTGFTVGWAYAVETGTHLLRMIAAGVFDRFPRLRIVLGHLGEMIPFMLDRIDNRYPFEMGVTGAKPLPRKPSDYFRDHVTVATSGMNFNAPMRAAIEVLGADKVMFAADYPMERQDEEVAKFAALDLTPDERKRIGEDNARRVFGL", "Endpoint result": "Low"}
{"Molecule": "3 (protein, listed as Lactobacillus plantarum) MAKLITVEEHFESAAVTAAMRQAVGNAVLPAVSPALRQYMRDNLPSPAIMQDTQHERLAFMAQYGIDMQVLSYGNSSPQNLSPEQAVPLSQLANDELAKAVVAHPDRYAGLAVLPVGDPQAAVAELNRAVTTLGLRGVLLKGNYQNKFFDEPFFLPIFEAAAALDVPVYFHPSFIPQAVTSHYFESNQWSDVVTGILSSAGYGWHMDVGIQVIRMIASGIFDKLPGLKLISGHWGELVPLFLERLDDELTTYTDLQYPFSTYYRHNVYVTPSGILSAPQLQFMLAEMGADHLMYSIDYPYKQPETSGSFLDIADLTDEQRAQIAFGTATTLFKL", "Endpoint result": "Low"}
{"Molecule": "8 (protein, listed as Metarhizium anisopliae) MARGKINFEEAFELPTLADSSREQAALYIAPKDLDRYIYHIKHPLGERLQLANSHGIGYTIYSLTVPGIQGIPDQSKAEQHATTVNDWIANEIKDHRDRLGAFAALSMHDAAQAAAELERCVRQHGFHGALLNNYQHAGPDGETYLFYDQPAYDVFWQKCVELDVPVYLHPAAPAGNYYKQMYAQRKYLVGPPLSFANDVSLHLLGLVTNGVFDRFPKLKVVVGHLGEHIPFDFWRISHWLEDVERPLAAGRGDVMSKKDLLYYFKNNIWVTTSGHFSTPTVRYVADYLGPERIMFSVDTPYETIENGVGWFDGEEDALTRALGGEDGYKKVARENAKKLFKLTKYHDCDA", "Endpoint result": "Low"}
{"Molecule": "97 (protein, listed as Sphingobium sp.) MAMMIIDCHGHYTVLPKAHDEWREQQKAAFKAGQPAPPYPEISDDEIRETIEANQLRLIKERGADMTIFSPRASAMAPHVGDQSVAVPWAQACNNLIARVVDLFPETFAGVCMLPQSPEADMTSSIAELERCVNELGFIGCNLNPDPGGGHFKHPPLTDRFWYPFYEKMVELDVPAMIHVSGSCNPAMHATGAYYLAADTIAFMQLLQGNLFADFPTLRFIIPHGGGAVPYHWGRFRGLADMLKQPSLDTLLMNNVFFDTCVYHQPGINLLADVIDNKNILFGSEMVGAVRGIDPTTGHYFDDTKRYIDALDISDQERHAIFEGNTRRVFPRLDAKLKARGL", "Endpoint result": "No"}
{"Molecule": "14 (protein, listed as Talaromyces marneffei) MARGKVSFEEAYEIPALADKSREQAALYIAPKDLDRYLSEIKSPTGGRLDISNKNGIGYTIYSLTVPGVQGIADKAKAEKHATDVNNWIYNEIKDHRDRMGAFAALSMHDPVQAGQELERCVKKLGFHGALLNNWQHAGTDGETYIFYDHPSYDVFWQKCVELDVPVYLHPSAPSGKVFDTFFKDRRYLIGPPISFAQDVALHTMGLITNGVFDRNPKLKLILGHLGERIPQDLWRTNHWLEDVERPLADSRGDTMSRKPLLYYFKNNIYVTTSGHFSTETVKFVCDYFGADRILFSVDSPYEKIEEGAGWYDKDKDNLTKALGGPQQYLDVGRENAKKLFKLGKYHDCDA", "Endpoint result": "Low"}
{"Molecule": "49 (protein, listed as Streptomyces sp.) MAKIIALEEHFSDPAVAKAGAARARALSPGFAASYSPASGLPYSPSPEVLENLAEKRLADMDAGGITMQVLSGLGAQTVPADVAPALVAGSNDKAAAAVRAHPDRFAAFAALPTATPEAAVAELDRSVNELGFVGTLIMGRTEGEFLDAPRFEPILARAAALKVPVFLHPGVPPREITDSNYAAGLPTGIGTRLQTAAWGWHQETAVHFLHLVHSGVLDRYPDLQFILGHWGEMIPFYLDRVDEALPQRATGLDRSFHEYFRENVYLAPSGMWSQAQLRFCLETVPLERIVFAVDYPFIGNEGAVPFLEKAELPQADKRKIAHENAERLLGL", "Endpoint result": "High"}
{"Molecule": "87 (protein, listed as Novosphingobium sp.) MASDIATAADLQTGGRQGYLRIATEEAFATRDQIDVYLRMVRDGTADRGMTSLWGFYAQSPSARATQIIERLLDLGEQRLADMDAAGIDKAVLALTSPGVQPLLDMEEARRIAGNANDRLAERCAAHPDRFIGMTAVAPQDPQWSAREILRGATQLGFKGVQINSHTQGRYLDEPFFDPIFRALGDVGQPLYIHPGTPPDSMIGPLLDAGLDGAIYGFGVETGMHLLRLITAGIFDRYPDLQIMVGHMGEALPYWLYRLDYMHQAGIRSQRYERMRPLKRTIAGYFRSNVLVTCSGMAWEPAIQFARQVMGEDRVMYAMDYPYQYEADEVRALDVMDLSPESKRKFFQTNAERWFDL", "Endpoint result": "High"}
